self-cleavage overview
B1: OR4K15 (parent)
chain: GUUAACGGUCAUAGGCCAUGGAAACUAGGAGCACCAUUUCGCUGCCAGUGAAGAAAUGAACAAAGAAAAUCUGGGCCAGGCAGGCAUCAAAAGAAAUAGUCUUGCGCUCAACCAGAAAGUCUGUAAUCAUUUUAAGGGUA

Variants of: B1
Test: self-cleavage, relative activity (ratio to wild type); higher = more cleavage; in vitro, sequencing; the parent is a self-cleaving ribozyme
Property: self-cleavage

{"Mutation label": "A54G A134G", "Property": "self-cleavage", "Recorded measurement": 1.2}
{"Mutation label": "A30G C45U", "Property": "self-cleavage", "Recorded measurement": 1.06}
{"Mutation label": "A55U A111G", "Property": "self-cleavage", "Recorded measurement": 0.02}
{"Mutation label": "A5G A47G", "Property": "self-cleavage", "Recorded measurement": 1.37}
{"Mutation label": "A36C A51U", "Property": "self-cleavage", "Recorded measurement": 2.34}
{"Mutation label": "U57C G75C", "Property": "self-cleavage", "Recorded measurement": 0.17}
{"Mutation label": "A18C A62G", "Property": "self-cleavage", "Recorded measurement": 1.36}
{"Mutation label": "A47G A90U", "Property": "self-cleavage", "Recorded measurement": 0.8}
{"Mutation label": "A11G A134G", "Property": "self-cleavage", "Recorded measurement": 0.88}
{"Mutation label": "U127A U131C", "Property": "self-cleavage", "Recorded measurement": 2.45}
{"Mutation label": "A24G A82C", "Property": "self-cleavage", "Recorded measurement": 0.25}
{"Mutation label": "U122A U133C", "Property": "self-cleavage", "Recorded measurement": 2.07}
{"Mutation label": "G14A A55G", "Property": "self-cleavage", "Recorded measurement": 1.58}
{"Mutation label": "A114C G137A", "Property": "self-cleavage", "Recorded measurement": 0.07}
{"Mutation label": "G74A U87A", "Property": "self-cleavage", "Recorded measurement": 0.22}
{"Mutation label": "G84C A111G", "Property": "self-cleavage", "Recorded measurement": 0.02}
{"Mutation label": "G65A A117U", "Property": "self-cleavage", "Recorded measurement": 0.6}
{"Mutation label": "A24C A33G", "Property": "self-cleavage", "Recorded measurement": 1.14}
{"Mutation label": "U3C A94G", "Property": "self-cleavage", "Recorded measurement": 2.02}
{"Mutation label": "A90U U120A", "Property": "self-cleavage", "Recorded measurement": 1.85}
{"Mutation label": "A82G A91U", "Property": "self-cleavage", "Recorded measurement": 0.59}
{"Mutation label": "A92G A129C", "Property": "self-cleavage", "Recorded measurement": 0.59}
{"Mutation label": "A68U U108C", "Property": "self-cleavage", "Recorded measurement": 0.02}
{"Mutation label": "A23G U124C", "Property": "self-cleavage", "Recorded measurement": 0.69}
{"Mutation label": "A22U U39C", "Property": "self-cleavage", "Recorded measurement": 0.34}
{"Mutation label": "U102C A118G", "Property": "self-cleavage", "Recorded measurement": 1.31}
{"Mutation label": "G75A U108C", "Property": "self-cleavage", "Recorded measurement": 0.03}
{"Mutation label": "U72C A98G", "Property": "self-cleavage", "Recorded measurement": 0.03}
{"Mutation label": "C85G A96G", "Property": "self-cleavage", "Recorded measurement": 1.02}
{"Mutation label": "A60U U133C", "Property": "self-cleavage", "Recorded measurement": 2.17}
{"Mutation label": "A91U A117U", "Property": "self-cleavage", "Recorded measurement": 1.15}
{"Mutation label": "U37C A96G", "Property": "self-cleavage", "Recorded measurement": 1.36}
{"Mutation label": "U87A U120C", "Property": "self-cleavage", "Recorded measurement": 1.28}
{"Mutation label": "U57C A64G", "Property": "self-cleavage", "Recorded measurement": 0.81}
{"Mutation label": "A30U G138A", "Property": "self-cleavage", "Recorded measurement": 2.22}
{"Mutation label": "U38A A55G", "Property": "self-cleavage", "Recorded measurement": 1}
{"Mutation label": "A51G A64G", "Property": "self-cleavage", "Recorded measurement": 1.42}
{"Mutation label": "A63U A92G", "Property": "self-cleavage", "Recorded measurement": 1.88}
{"Mutation label": "U2C A59U", "Property": "self-cleavage", "Recorded measurement": 0.98}
{"Mutation label": "A52G A86C", "Property": "self-cleavage", "Recorded measurement": 0.77}
{"Mutation label": "A69G C85U", "Property": "self-cleavage", "Recorded measurement": 0.65}
{"Mutation label": "G7A A82U", "Property": "self-cleavage", "Recorded measurement": 0.14}
{"Mutation label": "A23G A36C", "Property": "self-cleavage", "Recorded measurement": 1.41}
{"Mutation label": "A54U A64G", "Property": "self-cleavage", "Recorded measurement": 1.55}
{"Mutation label": "A33U A78G", "Property": "self-cleavage", "Recorded measurement": 0.29}
{"Mutation label": "U2C A126G", "Property": "self-cleavage", "Recorded measurement": 1.22}
{"Mutation label": "U38C A78C", "Property": "self-cleavage", "Recorded measurement": 0.46}
{"Mutation label": "A51G A68C", "Property": "self-cleavage", "Recorded measurement": 1.46}
{"Mutation label": "A5C A117U", "Property": "self-cleavage", "Recorded measurement": 0.56}
{"Mutation label": "A11G U49C", "Property": "self-cleavage", "Recorded measurement": 0.39}
{"Mutation label": "A52G G106C", "Property": "self-cleavage", "Recorded measurement": 0.02}
{"Mutation label": "G74A A125G", "Property": "self-cleavage", "Recorded measurement": 0.05}
{"Mutation label": "U3C A91G", "Property": "self-cleavage", "Recorded measurement": 0.84}
{"Mutation label": "A36C A69C", "Property": "self-cleavage", "Recorded measurement": 1.47}
{"Mutation label": "A60G U70G", "Property": "self-cleavage", "Recorded measurement": 1.65}
{"Mutation label": "U108A C121U", "Property": "self-cleavage", "Recorded measurement": 0}
{"Mutation label": "C16U C32G", "Property": "self-cleavage", "Recorded measurement": 0.15}
{"Mutation label": "G15A U131C", "Property": "self-cleavage", "Recorded measurement": 0.87}
{"Mutation label": "A11U C61A", "Property": "self-cleavage", "Recorded measurement": 1.92}
{"Mutation label": "A92U U127A", "Property": "self-cleavage", "Recorded measurement": 1.77}
{"Mutation label": "C40G A134G", "Property": "self-cleavage", "Recorded measurement": 0.82}
{"Mutation label": "C46U U139A", "Property": "self-cleavage", "Recorded measurement": 1.41}
{"Mutation label": "A5G A36U", "Property": "self-cleavage", "Recorded measurement": 1.13}
{"Mutation label": "A67U A92G", "Property": "self-cleavage", "Recorded measurement": 2.2}
{"Mutation label": "A52U U133C", "Property": "self-cleavage", "Recorded measurement": 1.72}
{"Mutation label": "A27U U120A", "Property": "self-cleavage", "Recorded measurement": 1.85}
{"Mutation label": "A66G U70C", "Property": "self-cleavage", "Recorded measurement": 0.75}
{"Mutation label": "A24G A52G", "Property": "self-cleavage", "Recorded measurement": 1.44}
{"Mutation label": "A67G U87C", "Property": "self-cleavage", "Recorded measurement": 1.19}
{"Mutation label": "C32A U87C", "Property": "self-cleavage", "Recorded measurement": 1.38}
{"Mutation label": "A47U A59U", "Property": "self-cleavage", "Recorded measurement": 0.57}
{"Mutation label": "A30U A52G", "Property": "self-cleavage", "Recorded measurement": 1.08}
{"Mutation label": "A36G A92U", "Property": "self-cleavage", "Recorded measurement": 0.99}
{"Mutation label": "A110U U122C", "Property": "self-cleavage", "Recorded measurement": 0.92}
{"Mutation label": "A5U A52G", "Property": "self-cleavage", "Recorded measurement": 1.18}
{"Mutation label": "A36U U39C", "Property": "self-cleavage", "Recorded measurement": 1.03}
{"Mutation label": "A86U U127A", "Property": "self-cleavage", "Recorded measurement": 2.92}
{"Mutation label": "U19C A125U", "Property": "self-cleavage", "Recorded measurement": 2.21}
{"Mutation label": "A82C A89G", "Property": "self-cleavage", "Recorded measurement": 0.16}
{"Mutation label": "U19C C76U", "Property": "self-cleavage", "Recorded measurement": 0.14}
{"Mutation label": "A55G A63C", "Property": "self-cleavage", "Recorded measurement": 0.12}
{"Mutation label": "U9C A55U", "Property": "self-cleavage", "Recorded measurement": 1.16}
{"Mutation label": "U9C G15A", "Property": "self-cleavage", "Recorded measurement": 1.47}
{"Mutation label": "G28A C128A", "Property": "self-cleavage", "Recorded measurement": 1.34}
{"Mutation label": "U37C A60G", "Property": "self-cleavage", "Recorded measurement": 0.54}
{"Mutation label": "U19C A111G", "Property": "self-cleavage", "Recorded measurement": 0.03}
{"Mutation label": "A24U A86G", "Property": "self-cleavage", "Recorded measurement": 1.8}
{"Mutation label": "U43A A95G", "Property": "self-cleavage", "Recorded measurement": 0.92}
{"Mutation label": "A13U A114U", "Property": "self-cleavage", "Recorded measurement": 0.07}
{"Mutation label": "A114G U130C", "Property": "self-cleavage", "Recorded measurement": 0.38}
{"Mutation label": "G50U A51U", "Property": "self-cleavage", "Recorded measurement": 1.95}
